# interaction score values compiled below
Molecular target: T1, 4H570-bN
T1 chain: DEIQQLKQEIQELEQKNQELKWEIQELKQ
Assay: two-hybrid library CCNG1;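 note: natural log of median RNA to DNA barcode read ratio; higher means stronger binding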

Consider the worked cases shown below.
>>> df
                                     binder  recorded_measurement
0  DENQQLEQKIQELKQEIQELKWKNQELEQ [4H1359-bN]                -0.803
1  DKNQQLKQEIQELEQKNQELEWKIQELKQ [4H3638-bN]                 0.408
2  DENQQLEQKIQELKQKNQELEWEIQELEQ [4H1393-bN]                 -2.48

Please examine the following record next.
// DENQQLEQKIQELEQKNQELKWEIQELKQ [4H1338-bN] : interaction score value = -0.567
